The measurements presented in this section are drawn from patent US11607396B2.

- TEST TARGET: human RIP1 kinase domain (2-375) (Homo sapiens (Human), UniProt Q13546)
- Sequence (Q13546 2-375): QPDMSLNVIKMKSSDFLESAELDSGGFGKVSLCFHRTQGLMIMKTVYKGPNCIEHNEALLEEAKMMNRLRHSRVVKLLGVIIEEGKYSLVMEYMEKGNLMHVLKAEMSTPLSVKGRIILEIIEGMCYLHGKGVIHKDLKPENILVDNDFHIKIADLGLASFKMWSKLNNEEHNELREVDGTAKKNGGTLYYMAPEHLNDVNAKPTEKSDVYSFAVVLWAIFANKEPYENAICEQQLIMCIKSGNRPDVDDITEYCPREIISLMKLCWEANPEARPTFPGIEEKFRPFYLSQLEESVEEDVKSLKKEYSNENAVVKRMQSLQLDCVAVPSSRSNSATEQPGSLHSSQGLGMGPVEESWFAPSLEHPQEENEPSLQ

{"COMPOUND": "O=C(c1nc2n(n1)CCC2c1ccccc1F)N1CC(F)(F)C1 (racemic)", "Ki / nM": 233}
